test system: Dd2 (wt); experiment: Cross-resistance panel, Dd2 wt; assay type: cell-based, Plasmodium falciparum; conditions: strain Dd2 wt
pIC50: −log10 of the molar value.
endpoint name: pIC50

compound	endpoint name	endpoint value
COc1cc2[nH]c(C)c(-c3ccc(Oc4ccc(OC(F)(F)F)cc4)cc3)c(=O)c2cc1Cl [ELQ300, reference compound]	pIC50	8.21

---

Tested on: Dd2 ELQ300 (PfcytB Ile22Leu)
Assay: Cross-resistance panel, Dd2 ELQ300
Assay type: cell-based, Plasmodium falciparum
Details: strain Dd2 ELQ300, PfcytB Ile22Leu; read-out: IC50
Procedure: Parasite lines used in the study were P. falciparum 3D7 (Pf3D7 Chloroquine-sensitive) and Plasmodium falciparum K1 (PfK1 Chloroquine-resistant) sourced from the Malaria Research and Reference Reagent Resource Center (MR4), ATCC, Manassas, VA, USA. FNDR-10132 was tested against a cross-resistance panel at Swiss TPH, Allschwil, Switzerland.
endpoint name: IC50

molecule	endpoint name	endpoint value
COc1cc2[nH]c(C)c(-c3ccc(Oc4ccc(OC(F)(F)F)cc4)cc3)c(=O)c2cc1Cl [ELQ300, reference compound]	IC50	59.7 nM
